What IC50 was measured for each of the following?
Tested on: HIV-1YU-2 Env pseudotyped HIV-1
protocol-summary: Single-round infection assay, YU-2 Env pseudotyped virus
measurement-context: Human immunodeficiency virus 1, U87/CD4/CCR5, 48 h, read-out: IC50 YU-2
Please append the unit to your numeric answer.

Please give the measured IC50 for this compound: COc1cnc(-n2cnc(C)n2)c2[nH]cc(C(=O)C(=O)NC3C4CN(C(=O)c5ccccc5)CC43)c12 (stereo not drawn)
0.48 µM

Given the compound C=C(C(=O)NC1C2CN(C(=O)c3ccccc3)CC21)n1ccc2c(-n3cnc(C)n3)nc3ccnn3c21 (stereo not drawn) , what is its reported IC50?
1.35 µM

State the recorded IC50 for this entry: CNC(=O)c1ncc(OC)c2c(C(=O)C(=O)NC3C4CN(C(=O)c5ccccc5)CC43)c[nH]c12 (stereo not drawn)
57.2 µM

# input compound: O=C(NC1C2CN(C(=O)c3ccccc3)CC21)C(=O)c1c[nH]c2c(-c3cccnc3)ncc(F)c12 (stereo not drawn) ; wanted: its IC50
22.6 µM

Would you mind telling me what IC50 value was observed for COc1ccc(-c2noc(N)n2)c2[nH]cc(C(=O)C(=O)NC3C4CN(C(=O)c5ccccc5)CC43)c12 (stereo not drawn) ?
0.11 µM

Can you look up the measured IC50 of Nc1nc(-c2ccc(F)c3c(C(=O)C(=O)NC4C5CN(C(=O)c6ccccc6)CC54)c[nH]c23)no1 (stereo not drawn) for me?
1.15 µM

* * *

Would you mind telling me the reported kd of each entry?
study-system: B41 SOSIP.664 gp140 trimer (Human immunodeficiency virus type 1, UniProt B3UES2, A505C/E513R/I563P/INS515RR/K514R/T609C)
Assay type: binding, HIV-1

Given COc1ccc(-c2noc(N)n2)c2[nH]cc(C(=O)C(=O)NC3C4CN(C(=O)c5ccccc5)CC43)c12 (stereo not drawn) , state its recorded kd.
6.39 ± 0.31 × 10^−3 s^−1

Please give the measured kd for this compound: COc1cnc(-n2cnc(C)n2)c2[nH]cc(C(=O)C(=O)N3CC(CCC(=O)c4ccccc4)C3)c12
5.44 ± 0.677 × 10^−3 s^−1

Fill in the blank: the reported kd of CNC(=O)c1ncc(OC)c2c(C(=O)C(=O)NC3C4CN(C(=O)c5ccccc5)CC43)c[nH]c12 (stereo not drawn) is ____.
3.43 ± 0.36 × 10^−2 s^−1

// query kd value for entry COc1cnc(-n2cnc(C)n2)c2[nH]cc(C(=O)C(=O)NC3C4CN(C(=O)c5ccccc5)CC43)c12 (stereo not drawn)
6.99 ± 0.43 × 10^−3 s^−1

Report kd for COc1cnc(-n2cnc(C)n2)c2[nH]cc(C(=O)C(=O)N3CC4CN(C(=O)c5ccccc5)CC4C3)c12 (stereo not drawn) please.
5.02 ± 2.67 × 10^−4 s^−1

// kd lookup, key: COc1cnc(-n2cnc(C)n2)c2[nH]cc(C(=O)C(=O)N3CC=C(CNC(=O)c4ccccc4)CC3)c12
1.52 ± 0.0294 × 10^−2 s^−1

* * *

Test system: HIV-1B41 Env pseudotyped HIV-1
protocol-summary: Single-round infection assay, B41 Env pseudotyped virus
measurement-context: Human immunodeficiency virus 1, U87/CD4/CCR5, 48 h, read-out: IC50 B41
quantity-name: pIC50
The scale used: pIC50 is minus the common logarithm of the concentration in molar units.

Endpoint output: pIC50 of O=C(NC1C2CN(C(=O)c3ccccc3)CC21)C(=O)c1c[nH]c2c(-c3cccnc3)ncc(F)c12 (stereo not drawn) . Value?
5.15

Consider the compound C=C(C(=O)NC1C2CN(C(=O)c3ccccc3)CC21)n1ccc2c(-n3cnc(C)n3)nc3ccnn3c21 (stereo not drawn) and give its measured pIC50.
6.37

May I ask what pIC50 has been recorded for Nc1nc(-c2ccc(F)c3c(C(=O)C(=O)NC4C5CN(C(=O)c6ccccc6)CC54)c[nH]c23)no1 (stereo not drawn) ?
5.69

Sample CNC(=O)c1ncc(OC)c2c(C(=O)C(=O)NC3C4CN(C(=O)c5ccccc5)CC43)c[nH]c12 (stereo not drawn) — what was its pIC50?
4.59

# query: pIC50 of entry COc1ccc(-c2noc(N)n2)c2[nH]cc(C(=O)C(=O)NC3C4CN(C(=O)c5ccccc5)CC43)c12 (stereo not drawn)
7.29

Entry COc1cnc(-n2cnc(C)n2)c2[nH]cc(C(=O)C(=O)NC3C4CN(C(=O)c5ccccc5)CC43)c12 (stereo not drawn) has what pIC50?
7.46

* * *

study-system: B41 SOSIP.664 gp140 trimer (Human immunodeficiency virus type 1, UniProt B3UES2, A505C/E513R/I563P/INS515RR/K514R/T609C)
Format: binding, HIV-1
I'd appreciate it if you could supply ka values for the items below.

// lookup ka for COc1cnc(-n2cnc(C)n2)c2[nH]cc(C(=O)C(=O)N3CC4CN(C(=O)c5ccccc5)CC4C3)c12 (stereo not drawn) [SC11]
3.83 ± 1.12 × 10^3 M^−1s^−1

Could you tell me which ka is on file for COc1cnc(-n2cnc(C)n2)c2[nH]cc(C(=O)C(=O)N3CC(CCC(=O)c4ccccc4)C3)c12 [SC15] ?
3.01 ± 0.188 × 10^5 M^−1s^−1

Report ka for COc1cnc(-n2cnc(C)n2)c2[nH]cc(C(=O)C(=O)NC3C4CN(C(=O)c5ccccc5)CC43)c12 (stereo not drawn) [SC28] please.
1.39 ± 0.14 × 10^4 M^−1s^−1

Give the measured ka of COc1ccc(-c2noc(N)n2)c2[nH]cc(C(=O)C(=O)NC3C4CN(C(=O)c5ccccc5)CC43)c12 (stereo not drawn) [SC56] .
1.22 ± 0.067 × 10^7 M^−1s^−1

Item COc1cnc(-n2cnc(C)n2)c2[nH]cc(C(=O)C(=O)N3CC=C(CNC(=O)c4ccccc4)CC3)c12 [SC45] has what recorded ka?
1.38 ± 0.045 × 10^4 M^−1s^−1

Given CNC(=O)c1ncc(OC)c2c(C(=O)C(=O)NC3C4CN(C(=O)c5ccccc5)CC43)c[nH]c12 (stereo not drawn) [SC49] , state its recorded ka.
9.49 ± 1.6 × 10^2 M^−1s^−1

* * *

For each of the compounds below, state its IC50.
Tested on: HIV-1JRCSF Env pseudotyped HIV-1
protocol-summary: Single-round infection assay, JRCSF Env pseudotyped virus
measurement-context: Human immunodeficiency virus 1, U87/CD4/CCR5, 48 h, read-out: IC50 JRCSF
Express your answer in nM, writing the number without its unit.

What does the data say about its IC50? Entry: COc1cnc(-n2cnc(C)n2)c2[nH]cc(C(=O)C(=O)NC3C4CN(C(=O)c5ccccc5)CC43)c12 (centres unmarked)
26

# IC50 lookup, item C=C(C(=O)NC1C2CN(C(=O)c3ccccc3)CC21)n1ccc2c(-n3cnc(C)n3)nc3ccnn3c21 (centres unmarked)
2020

Which IC50 value is on record for Nc1nc(-c2ccc(F)c3c(C(=O)C(=O)NC4C5CN(C(=O)c6ccccc6)CC54)c[nH]c23)no1 (centres unmarked) ?
450

Look at this compound and give its reported IC50. O=C(NC1C2CN(C(=O)c3ccccc3)CC21)C(=O)c1c[nH]c2c(-c3cccnc3)ncc(F)c12 (centres unmarked)
28900

Consider the compound shown here: COc1ccc(-c2noc(N)n2)c2[nH]cc(C(=O)C(=O)NC3C4CN(C(=O)c5ccccc5)CC43)c12 (centres unmarked) What is its recorded IC50?
46

* * *

System: HIV-1B41, HIV-1HxBc2, HIV-1JRCSF, HIV-1JRFL, and HIV-1YU-2 Env pseudotyped HIV-1
protocol-summary: Single-round infection assay, summary over the five Env pseudotypes
measurement-context: Human immunodeficiency virus 1, read-out: Median IC50
For each of the molecules below, state its pIC50.
Keep it numeric: pIC50 is minus log10 of the concentration in mol/L.

Requested field: pIC50. Item: CNC(=O)c1ncc(OC)c2c(C(=O)C(=O)NC3C4CN(C(=O)c5ccccc5)CC43)c[nH]c12 (stereo not drawn)
4.35

What value of pIC50 has been recorded for this entry: O=C(NC1C2CN(C(=O)c3ccccc3)CC21)C(=O)c1c[nH]c2c(-c3cccnc3)ncc(F)c12 (stereo not drawn)
4.74

Query: pIC50; subject: Nc1nc(-c2ccc(F)c3c(C(=O)C(=O)NC4C5CN(C(=O)c6ccccc6)CC54)c[nH]c23)no1 (stereo not drawn)
6.02

Field request: pIC50 | item: COc1cnc(-n2cnc(C)n2)c2[nH]cc(C(=O)C(=O)NC3C4CN(C(=O)c5ccccc5)CC43)c12 (stereo not drawn)
6.82

Sample C=C(C(=O)NC1C2CN(C(=O)c3ccccc3)CC21)n1ccc2c(-n3cnc(C)n3)nc3ccnn3c21 (stereo not drawn) — what was its pIC50?
5.97

Fill blank: measured pIC50 of the molecule COc1ccc(-c2noc(N)n2)c2[nH]cc(C(=O)C(=O)NC3C4CN(C(=O)c5ccccc5)CC43)c12 (stereo not drawn) is ____.
7.16
